Data provenance: patent US20100183625A1

Target: T1, pKal (Homo sapiens, UniProt P03952)
T1 construct: two disulfide linked polypeptides; a heavy chain of approximately 52 kDa and a catalytic domain of approximately 34 kDa; host or cells: human plasma
T1 sequence (P03952 391-638 limits assumed): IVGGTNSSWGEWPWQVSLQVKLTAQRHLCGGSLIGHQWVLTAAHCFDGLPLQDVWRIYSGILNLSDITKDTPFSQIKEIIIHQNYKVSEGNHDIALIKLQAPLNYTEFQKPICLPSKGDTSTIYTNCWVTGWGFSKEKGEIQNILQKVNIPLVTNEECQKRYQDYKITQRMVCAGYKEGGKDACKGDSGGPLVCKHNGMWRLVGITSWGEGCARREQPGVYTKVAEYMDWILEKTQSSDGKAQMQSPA
T1 sequence (P03952 20-390 partner limits assumed): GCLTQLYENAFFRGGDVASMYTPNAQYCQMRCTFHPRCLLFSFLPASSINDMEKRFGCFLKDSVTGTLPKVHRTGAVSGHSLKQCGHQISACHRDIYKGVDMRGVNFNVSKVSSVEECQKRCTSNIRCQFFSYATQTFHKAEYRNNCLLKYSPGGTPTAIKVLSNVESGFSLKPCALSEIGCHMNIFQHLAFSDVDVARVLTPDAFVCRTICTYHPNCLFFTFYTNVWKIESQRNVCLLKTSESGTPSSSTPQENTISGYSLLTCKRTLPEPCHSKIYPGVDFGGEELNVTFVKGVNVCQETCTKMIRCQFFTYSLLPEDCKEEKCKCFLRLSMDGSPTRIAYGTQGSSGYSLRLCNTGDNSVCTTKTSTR
Test: Fab fragments (small scale) tested for inhibition against human pKal in an in vitro protease cleavage assay
Assay type: biochemical
Conditions: Table 9
Protocol: By DNA sequencing, we recovered 61 of the possible 80 antibodies (Table 9). These antibodies were produced as Fab fragments in small scale (˜20 μg) and tested for inhibition against human pKal in an in vitro protease cleavage assay using Pro-Phe-Arg-aminomethylcoumarin as the synthetic peptide substrate. […] The antibodies were analyzed by SDS-PAGE to determine which of the inhibitory mutants are not cleaved by the host cell protease(s) (data not shown).
readout_kind: Inhibit as a Fab?

INSERT INTO measurements (molecule, readout_kind, test_value) VALUES
  ('X69-F09: single point mutation of M142-H08 (P1′); HV-CDR3 GGLLLWFRSLKSNYFDY (antibody, V domains shown) VL: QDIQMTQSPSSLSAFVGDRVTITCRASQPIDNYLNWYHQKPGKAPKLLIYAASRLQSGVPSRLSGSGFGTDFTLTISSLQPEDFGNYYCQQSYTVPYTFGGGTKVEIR VH: EVQLLESGGGLVQPGGSLRLSCAASGFTFSAYSMIWVRQAPSKGLEWVSYIRPSGGRTTYADSVKGRFTISRDNSKNTLYLQMNSLRAEDTAVYYCARGGLLLWFRSLKSNYFDYWGQGTLVTVSSASTKGPSVFPLAPSSKS', 'Inhibit as a Fab?', 'Yes');
